Reported pKd values for a set of binders
# Experimental System: T1, human CD47 protein, His Tag (ACRObiosystems, Cat. No. CD7-H5227) (human, UniProt Q08722 19-139)
# T1 construct: Bought protein; also called hCD47-His Tag protein; not shown: His tag
# T1 sequence (Q08722 19-139 limits assumed): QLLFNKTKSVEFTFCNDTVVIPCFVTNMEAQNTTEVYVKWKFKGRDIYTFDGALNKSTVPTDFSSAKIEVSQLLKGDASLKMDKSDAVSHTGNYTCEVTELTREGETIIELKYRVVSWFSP
# Experiment Summary: Biacore SPR, antibody captured on CM5 chip, CD47-His protein, 25 C
pKd field: float, defined as -log10 of concentration (mol/L).

Some binders with known pKd results, for comparison:
- Binder: "hz3F10-4.2 (antibody, human IgG4 S228P, kappa, V domains shown, Humanized 3F10, full-length heavy and light chains, made in CHO cells) VH: QVQLVQSGAEVKKPGSSVKVSCKASGYTFSRYWIEWVRQAPGQGLEWMGEFIPGSDTTNYAQKFQGRVTITAEISTNTAYMELSSLRSEDTAVYYCARGGLRRMDYWGQGTLVTVSS VL: DIQMTQSPSSLSASVGDRVTITCRASSSVSSTYLHWYQQKPGKAPKLLIYTTSTLASGVPSRFSGSGSGTSYTLTISSLQPEDFATYYCQQFSESTWTFGQGTKLEIKR"
  Experimental Endpoint: "pKd"
  Reported Value: 8.87
- Binder: "Xi14A9 (antibody, human IgG4 S228P, kappa, V domains shown, Chimeric: mouse VH on human IgG4 (S228P, EU) constant region, mouse VL on human kappa constant region; made in CHO cells; also called chimeric version of 14A9) VH: EVQLQQSGAEVARPGASVKLSCTVSGFNIEDDYIEWVKQRPEQGLEWIGRIDPANDKTKYAPKFQDKATITGDTSSNTAYLQLSSLTSEDTAVYYCTRPGLRRYYSMDYWGQGTSVTVSS VL: NIVLTQSPKSMSMSVGERVTLSCKASENVVSYVSWYQQKPEQSPKLLIYGASNRYTGVPDRFIGSGSSTDFTLIISSFQPEDLADYHCGQSYSYPLTFGAGTKLELKR"
  Experimental Endpoint: "pKd"
  Reported Value: 8.63

For reference, reported pKd for hz14A9-2.4 (antibody, human IgG4 S228P, kappa, V domains shown) VH: QVQLVQSGAEVKKPGASVKVSCKVSGFNIEDDYIEWVRQAPGQGLEWMGRIDPANDKTKYAQKFQGRVTMTGDTSTNTVYMELSSLRSEDTAVYYCTRPGLRRYYSMDYWGQGTLVTVSS VL: DIQMTQSPSSLSASVGDRVTITCKASENVVSYVSWYQQKPGKAPKLLIYGASNRYTGVPSRFIGSGSSTDFTLTISSLQPEDFATYYCGQSYSYPLTFGQGTKLEIKR stands at 8.07
